Source listed as ChEMBL document CHEMBL1126283.

Consider the following molecules; for each one, report its Kb.
species on record: Canis familiaris; test: Evaluated for contraction of dog saphenous vein; type: functional, organism-based; details: Canis lupus familiaris, read-out: pA2 (converted)
Give bare numbers, in nM.

Please report the recorded Kb for O=C(O)CSC(CCCCNS(=O)(=O)c1ccc(Cl)cc1)CCCc1cccnc1 (configuration not stated) .
0.269

Look up Kb for the entries below, preserving their order.
1. O=C(O)CC(CCCCNS(=O)(=O)c1ccc(Cl)cc1)CCCc1cccnc1 (configuration not stated)
2. O=C(O)CCC(C/C=C/c1cccnc1)CCCCNS(=O)(=O)c1ccc(Cl)cc1 (configuration not stated)
3. O=C(O)C(=O)NC(CCCCNS(=O)(=O)c1ccc(Cl)cc1)CCCc1cccnc1 (configuration not stated)

1: 3.72; 2: 0.603; 3: 1.86

Look up Kb for the entries below, preserving their order.
1. O=C(O)CCC(CCCCNS(=O)(=O)c1ccc(Cl)cc1)CCOc1cccnc1 (configuration not stated)
2. Cc1ccc(S(=O)(=O)NCCCCC(CCCc2cccnc2)CCC(=O)O)cc1 (configuration not stated)
3. O=C(O)CCC(CCCCNS(=O)(=O)c1ccc(Cl)cc1)CCn1ccnc1 (configuration not stated)

[0.398, 1.55, 34.7]

* * *

tested on: Cavia porcellus; assay: Ex vivo inhibition of U-46,619-induced aggregation of guinea pig platelets after peroral administration of 10 mg/kg dose at 1 hr time; assay type: functional; conditions: route oral
observable: Concentration ratio
Answers are plain numbers.

Please report the recorded Concentration ratio for O=S(=O)(NCCCCC(CCCc1cccnc1)CCC1N=NN=N1)c1ccc(Cl)cc1 (centres undefined) .
10

How about CC(C)(CC(CCCCNS(=O)(=O)c1ccc(Cl)cc1)CCCc1cccnc1)C(=O)O (centres undefined) ?
8.7

How about O=C(O)CCC(CCCCNS(=O)(=O)c1ccc(Cl)cc1)CCCc1cccnc1 (centres undefined) ?
27.3

# evaluate next
Please report the recorded Concentration ratio for O=C(O)CSC(CCCCNS(=O)(=O)c1ccc(Cl)cc1)CCCc1cccnc1 (centres undefined) .
33

* * *

Target: UniProt P24557
Sequence (P24557 whole entry): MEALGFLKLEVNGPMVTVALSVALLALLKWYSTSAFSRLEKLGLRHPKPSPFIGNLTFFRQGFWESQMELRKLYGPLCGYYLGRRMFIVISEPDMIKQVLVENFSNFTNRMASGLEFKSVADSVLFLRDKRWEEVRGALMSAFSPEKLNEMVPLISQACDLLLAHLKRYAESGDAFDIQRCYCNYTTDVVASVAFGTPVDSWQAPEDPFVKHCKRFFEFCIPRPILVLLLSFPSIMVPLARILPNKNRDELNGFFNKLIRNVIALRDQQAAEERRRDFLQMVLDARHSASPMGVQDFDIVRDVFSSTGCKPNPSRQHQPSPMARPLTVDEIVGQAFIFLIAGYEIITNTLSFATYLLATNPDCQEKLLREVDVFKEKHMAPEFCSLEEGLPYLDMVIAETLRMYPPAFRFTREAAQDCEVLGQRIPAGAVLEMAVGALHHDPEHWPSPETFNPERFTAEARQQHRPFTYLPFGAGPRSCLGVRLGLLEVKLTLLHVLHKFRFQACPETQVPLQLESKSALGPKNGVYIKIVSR
Assay: In vitro inhibition of Thromboxane A2 synthase
Field: label. Allowed values: Fulfilled (IC50 < 4 nM) or Not fulfilled (IC50 >= 4 nM).

Answered examples (4):
Given the entry O=C(O)CCC(CCCCNS(=O)(=O)c1ccc(Cl)cc1)CCCn1ccnc1 (configuration not stated) , would its reported IC50 be below 4 nM?
Fulfilled

How about O=C(O)CCC(CCCCNS(=O)(=O)c1ccc(F)cc1)CCCc1cccnc1 (configuration not stated) ?
Fulfilled

How about O=C(O)CSC(CCCCNS(=O)(=O)c1ccc(Cl)cc1)CCCc1cccnc1 (configuration not stated) ?
Fulfilled

How about O=C(O)C(=O)NC(CCCCNS(=O)(=O)c1ccc(Cl)cc1)CCCc1cccnc1 (configuration not stated) ?
Not fulfilled

Continuing:
Given the entry O=C(O)CCC(CCCCNS(=O)(=O)c1ccc(Cl)cc1)CCn1ccnc1 (configuration not stated) , would its reported IC50 be below 4 nM?
Not fulfilled

How about O=C(O)CCC(CCCCNS(=O)(=O)c1ccc(Cl)cc1)CCCc1ccc[n+]([O-])c1 (configuration not stated) ?
Fulfilled

How about O=C(O)C(CCCCNS(=O)(=O)c1ccc(Cl)cc1)CCCc1cccnc1 (configuration not stated) ?
Not fulfilled
